Source listed as ChEMBL document CHEMBL3885881.

species: Rattus norvegicus; experiment: DrugMatrix - Regimen: Daily Repeat; format: toxicity, organism-based, Sprague-Dawley; set-up: regimen Daily Repeat, gender Male, age 6-8 weeks; details: in vivo, po, 0 mg/kg, 120 h, tissue Plasma, route oral GAVAGE, dose level Control, time 5 day, vehicle .5 % CMC
Endpoint Label: ALANINE AMINOTRANSFERASE (u/L)
Field: numeric (u/L). Do not append units.

{"columns": ["Molecule", "Assay Result"],
 "data": [
  ["C[C@]1(Cn2ccnn2)[C@H](C(=O)O)N2C(=O)C[C@H]2S1(=O)=O", 46.5],
  ["C#C[C@]1(O)CC[C@H]2[C@@H]3CCc4cc(OC)ccc4[C@H]3CC[C@@]21C", 54.17],
  ["OC(CCN1CCCCC1)(c1ccccc1)C1CCCCC1 (stereo not drawn)", 45.17],
  ["Clc1ccc2c(c1)C(N1CCNCC1)=Nc1ccccc1O2", 58.67],
  ["N=C(N)NC(=O)c1nc(Cl)c(N)nc1N [AMILORIDE]", 41.83],
  ["C[C@](O)(CS(=O)(=O)c1ccc(F)cc1)C(=O)Nc1ccc(C#N)c(C(F)(F)F)c1 [(R)-BICALUTAMIDE]", 49.17]
]}

Fill in the blank: the reported ALANINE AMINOTRANSFERASE of `CC[C@@H](CO)NCCN[C@@H](CC)CO` is ____.
41.83

Please give the result for `Cc1onc(-c2ccccc2)c1-c1ccc(S(N)(=O)=O)cc1` too.
38

----------
organism: Rattus norvegicus; assay: DrugMatrix - Regimen: Daily Repeat; format: toxicity, organism-based, Sprague-Dawley; design: regimen Daily Repeat, gender Male, age 6-8 weeks; conditions: in vivo, po, 1500 mg/kg, 72 h, tissue Plasma, route oral GAVAGE, dose level High, time 3 day, vehicle .5 % CMC
Endpoint Label: CREATININE
Answer with the number, then the unit.

Some entries whose results are on file:
{"columns": ["Compound", "CREATININE"],
 "data": [
  ["CO[C@H]1/C=C/O[C@@]2(C)Oc3c(C)c(O)c4c(c3C2=O)C2=NC3(CCN(CC(C)C)CC3)NC2=C(NC(=O)/C(C)=C\\C=C\\[C@H](C)[C@H](O)[C@@H](C)[C@@H](O)[C@@H](C)[C@H](OC(C)=O)[C@@H]1C)C4=O [RIFABUTIN]", "0.21 mg/dL"],
  ["NC(=O)c1cnccn1 [PYRAZINAMIDE]", "0.15 mg/dL"]
]}

Fill in the blank: the reported CREATININE of Cc1ccc(S(=O)(=O)NC(=O)NN2CC3CCCC3C2)cc1 (configuration not stated) [GLICLAZIDE] is ____.
0.14 mg/dL

Please give the result for C[C@]1(Cn2ccnn2)[C@H](C(=O)O)N2C(=O)C[C@H]2S1(=O)=O [TAZOBACTAM] too.
0.18 mg/dL

Please give the result for Cc1cc(=O)n(-c2ccccc2)n1C [ANTIPYRINE] too.
0.17 mg/dL

Please give the result for O=C(N[C@H](CO)[C@H](O)c1ccc([N+](=O)[O-])cc1)C(Cl)Cl [CHLORAMPHENICOL] too.
0.15 mg/dL

Please give the result for CNC(=C[N+](=O)[O-])NCCSCc1ccc(CN(C)C)o1 [RANITIDINE] too.
0.18 mg/dL

----------
organism: Rattus norvegicus; assay: DrugMatrix - Regimen: Daily Repeat; type: toxicity, organism-based, Sprague-Dawley; set-up: regimen Daily Repeat, gender Male, age 6-8 weeks; conditions: in vivo, po, 1500 mg/kg, 120 h, tissue Plasma, route oral GAVAGE, dose level High, time 5 day, vehicle .5 % CMC
Listed compounds paired with reported PHOSPHORUS
Answer with the number, then the unit.

Some entries whose results are on file:
{"columns": ["Compound", "Assay Result"],
 "data": [
  ["Cc1cc(=O)n(-c2ccccc2)n1C [ANTIPYRINE]", "10.8 mg/dL"],
  ["CO[C@H]1/C=C/O[C@@]2(C)Oc3c(C)c(O)c4c(c3C2=O)C2=NC3(CCN(CC(C)C)CC3)NC2=C(NC(=O)/C(C)=C\\C=C\\[C@H](C)[C@H](O)[C@@H](C)[C@@H](O)[C@@H](C)[C@H](OC(C)=O)[C@@H]1C)C4=O", "11 mg/dL"],
  ["CNC(=C[N+](=O)[O-])NCCSCc1ccc(CN(C)C)o1", "12.5 mg/dL"]
]}

The record that follows has no PHOSPHORUS shown yet.
Fill in the blank: the reported PHOSPHORUS of Cc1ccc(S(=O)(=O)NC(=O)NN2CC3CCCC3C2)cc1 (centres undefined) [GLICLAZIDE] is ____.
10.43 mg/dL

----------
species on record: Rattus norvegicus; assay: DrugMatrix - Regimen: Daily Repeat; type: toxicity, organism-based, Sprague-Dawley; set-up: regimen Daily Repeat, gender Male, age 6-8 weeks; conditions: in vivo, po, 0 mg/kg, 72 h, tissue Plasma, route oral GAVAGE, dose level Control, time 3 day, vehicle 100 % WATER
Endpoint Label: CHLORIDE (MEQ/L)
Field: numeric (MEQ/L). Do not append units.

Some entries whose results are on file:
{"columns": ["Compound", "CHLORIDE / MEQ/L"],
 "data": [
  ["COc1cc2ncnc(Nc3ccc(F)c(Cl)c3)c2cc1OCCCN1CCOCC1", 104.83],
  ["Cc1ncc([N+](=O)[O-])n1CCO", 103.83],
  ["CC(C)NCC(O)COc1cccc2ccccc12 (stereo not given)", 103.17]
]}

Fill in the blank: the reported CHLORIDE of C[C@@H]1C[C@@H]([C@H](O)CC2CC(=O)NC(=O)C2)C(=O)[C@@H](C)C1 [CYCLOHEXIMIDE] is ____.
99

Please give the result for `CC(C)(C)c1ccc(C(=O)CCCN2CCC(OC(c3ccccc3)c3ccccc3)CC2)cc1` too.
101.17

Please give the result for `CC(C)C[C@H](NC(=O)[C@@H](O)[C@H](N)Cc1ccccc1)C(=O)O` too.
99.83

Please give the result for COC(=O)C1=C(C)NC(C)=C(C(=O)OCC(C)C)C1c1ccccc1[N+](=O)[O-] (stereo not given) too.
100.83

Please give the result for `Nc1ccn([C@@H]2CS[C@H](CO)O2)c(=O)n1` too.
99.67

Please give the result for ClC(Cl)Cl [CHLOROFORM] too.
103.83

Please give the result for C[N+](C)(C)CCO.[Cl-] [CHOLINE CHLORIDE] too.
100.67

----------
organism: Rattus norvegicus; assay: DrugMatrix - Regimen: Daily Repeat; format: toxicity, organism-based, Sprague-Dawley; set-up: regimen Daily Repeat, gender Male, age 6-8 weeks; conditions: in vivo, po, 0 mg/kg, 72 h, tissue Plasma, route oral GAVAGE, dose level Control, time 3 day, vehicle .5 % CMC
Consider the cut-off 4 G/DL. If the recorded ALBUMIN is strictly smaller, the label is 1; if not, the label is -1.

Field: below-cutoff. Rule: recorded ALBUMIN strictly less than 4 G/DL. Subject: CC(C)[C@H]1CC[C@H](C(=O)N[C@H](Cc2ccccc2)C(=O)O)CC1 [NATEGLINIDE]
-1

Please give the result for `Cc1onc(-c2ccccc2)c1-c1ccc(S(N)(=O)=O)cc1` too.
1

Please give the result for CN1C(=O)COc2c(C(=O)NC3CN4CCC3CC4)cc(Cl)cc21 (stereo not given) too.
-1

Please give the result for `C[C@]1(Cn2ccnn2)[C@H](C(=O)O)N2C(=O)C[C@H]2S1(=O)=O` too.
-1

Please give the result for O=C1CCC(N2C(=O)c3ccccc3C2=O)C(=O)N1 (stereo not given) [THALIDOMIDE] too.
1

Please give the result for `CNC(=C[N+](=O)[O-])NCCSCc1ccc(CN(C)C)o1` too.
-1

Please give the result for `CO[C@H]1/C=C/O[C@@]2(C)Oc3c(C)c(O)c4c(c3C2=O)C2=NC3(CCN(CC(C)C)CC3)NC2=C(NC(=O)/C(C)=C\C=C\[C@H](C)[C@H](O)[C@@H](C)[C@@H](O)[C@@H](C)[C@H](OC(C)=O)[C@@H]1C)C4=O` too.
-1

Please give the result for `CN1CCC(=C2c3ccccc3C=Cc3ccccc32)CC1` too.
1

----------
organism: Rattus norvegicus; test: DrugMatrix - Regimen: Daily Repeat; type: toxicity, organism-based, Sprague-Dawley; parameters: regimen Daily Repeat, gender Male, age 6-8 weeks; details: in vivo, ip, 0 mg/kg, 120 h, tissue Blood, route intraperitoneal, dose level Control, time 5 day, vehicle 100 % SALINE
Endpoint Label: ABSOLUTE EOSINOPHIL (cells/µL)
Field: numeric (cells/µL). Do not append units.

Fill in the blank: the reported ABSOLUTE EOSINOPHIL of CADMIUM DICHLORIDE is ____.
110

----------
organism: Rattus norvegicus; test: DrugMatrix - Regimen: Daily Repeat; format: toxicity, organism-based, Sprague-Dawley; design: regimen Daily Repeat, gender Male, age 6-8 weeks; settings: in vivo, po, 10 mg/kg, 72 h, tissue Blood, route oral GAVAGE, dose level Low, time 3 day, […]
Endpoint Label: ABSOLUTE SEGMENTED NEUTROPHIL (CELLS/uL)
Field: numeric (CELLS/uL). Do not append units.

Some entries whose results are on file:
{"columns": ["Compound", "Assay Result"],
 "data": [
  ["CC(C)CC(N(C)C)C1(c2ccc(Cl)cc2)CCC1 (centres undefined)", 1483.33],
  ["CCOC(=O)C1=C(C)NC(C)=C(C(=O)OC)C1c1cccc([N+](=O)[O-])c1 (centres undefined)", 940],
  ["COc1ccc2cc([C@H](C)C(=O)O)ccc2c1", 1296]
]}

The record that follows has no ABSOLUTE SEGMENTED NEUTROPHIL shown yet.
Fill in the blank: the reported ABSOLUTE SEGMENTED NEUTROPHIL of COCCOC(=O)C1=C(C)NC(C)=C(C(=O)OC(C)C)C1c1cccc([N+](=O)[O-])c1 (centres undefined) is ____.
975.33
